I'd appreciate it if you could supply relative cell viability values for the items below.
Test system: MDA-MB-231
test.protocol: relative cell viability, compound + erastin, vs DMSO (fraction of DMSO control); higher = less growth inhibition
condition.details: 72 h
I only need the number, thanks.

In: Name the recorded relative cell viability for CCN(CC)Cc1ccc(C(=O)N(CCc2ccccc2OC)[C@@H]2CCNC2)cc1 + CCOc1ccccc1-n1c(C(C)N2CCN(C(=O)COc3ccc(Cl)cc3)CC2)nc2ccccc2c1=O .
Out: 0.726

In: Name the recorded relative cell viability for C[C@H](CCOc1cccc(CC(=O)O)c1)N(Cc1cccc(C(F)(F)F)c1Cl)CC(c1ccccc1)c1ccccc1 + CCOc1ccccc1-n1c(C(C)N2CCN(C(=O)COc3ccc(Cl)cc3)CC2)nc2ccccc2c1=O [erastin] .
Out: 0.384

In: Name the recorded relative cell viability for CCCCCCCCCCC[C@@H](C[C@@H]1OC(=O)[C@H]1CCCCCC)OC(=O)[C@H](CC(C)C)NC=O [Orlistat] + CCOc1ccccc1-n1c(C(C)N2CCN(C(=O)COc3ccc(Cl)cc3)CC2)nc2ccccc2c1=O .
Out: 0.52

In: Name the recorded relative cell viability for O=C(CCCCc1ccc2c(c1)OCO2)N1CCCCC1 + CCOc1ccccc1-n1c(C(C)N2CCN(C(=O)COc3ccc(Cl)cc3)CC2)nc2ccccc2c1=O .
Out: 0.35

In: Name the recorded relative cell viability for CCC(CC)CC1(C(=O)Nc2ccccc2SC(=O)C(C)C)CCCCC1 [Dalcetrapib] + CCOc1ccccc1-n1c(C(C)N2CCN(C(=O)COc3ccc(Cl)cc3)CC2)nc2ccccc2c1=O .
Out: 0.839

---

System: MDA-MB-231;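 further: viability read by CCK-8 kit in 96-well plates, part of a combination screen pairing lipid-metabolism-targeting compounds with erastin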
test.protocol: relative cell viability, compound + erastin, vs DMSO (fraction of DMSO control); higher = less growth inhibition
condition.details: 72 h
I'd appreciate it if you could supply relative cell viability values for the items below.
I only need the number, thanks.

In: Name the recorded relative cell viability for CCc1ccc(CCOc2ccc(CC3SC(=O)NC3=O)cc2)nc1 (stereo not drawn) [Pioglitazone] + CCOc1ccccc1-n1c(C(C)N2CCN(C(=O)COc3ccc(Cl)cc3)CC2)nc2ccccc2c1=O .
Out: 0.551

In: Name the recorded relative cell viability for O=C(c1ccc(-c2nc3ccc(F)cc3o2)cc1)N1CCN(C(=O)C2(O)CC2)CC1 + CCOc1ccccc1-n1c(C(C)N2CCN(C(=O)COc3ccc(Cl)cc3)CC2)nc2ccccc2c1=O .
Out: 0.823

In: Name the recorded relative cell viability for CCc1c(-c2ccccc2)c(-c2ccccc2)nn1-c1ccccc1-c1cccc(OCC(=O)O)c1 + CCOc1ccccc1-n1c(C(C)N2CCN(C(=O)COc3ccc(Cl)cc3)CC2)nc2ccccc2c1=O .
Out: 0.861

In: Name the recorded relative cell viability for COc1ccc(C2(CNC(=O)c3ccc(NC(=O)c4ccco4)cc3)CCOCC2)cc1 + CCOc1ccccc1-n1c(C(C)N2CCN(C(=O)COc3ccc(Cl)cc3)CC2)nc2ccccc2c1=O .
Out: 0.728

In: Name the recorded relative cell viability for CC(C)c1c(C(=O)Nc2ccccc2)c(-c2ccccc2)c(-c2ccc(F)cc2)n1CC[C@@H](O)C[C@@H](O)CC(=O)O [Atorvastatin Calcium] + CCOc1ccccc1-n1c(C(C)N2CCN(C(=O)COc3ccc(Cl)cc3)CC2)nc2ccccc2c1=O .
Out: 0.337

In: Name the recorded relative cell viability for CC(C)(Oc1ccc(C2CC2(Cl)Cl)cc1)C(=O)O (stereo not drawn) [Ciprofibrate] + CCOc1ccccc1-n1c(C(C)N2CCN(C(=O)COc3ccc(Cl)cc3)CC2)nc2ccccc2c1=O .
Out: 0.628

In: Name the recorded relative cell viability for Cc1cc(C)c(S(=O)(=O)Nc2cccc(C(F)(F)F)c2)c(C)c1 + CCOc1ccccc1-n1c(C(C)N2CCN(C(=O)COc3ccc(Cl)cc3)CC2)nc2ccccc2c1=O .
Out: 0.98

In: Name the recorded relative cell viability for C[C@@]12C[C@@H](c3ccoc3)OC(=O)[C@@H]1CC[C@]1(C)[C@H]2[C@@H]2C=C[C@@]1(O)C(=O)O2 [Columbin] + CCOc1ccccc1-n1c(C(C)N2CCN(C(=O)COc3ccc(Cl)cc3)CC2)nc2ccccc2c1=O .
Out: 0.688

In: Name the recorded relative cell viability for CC(C)(Oc1ccc(Cl)cc1)C(=O)O [Clofibric acid] + CCOc1ccccc1-n1c(C(C)N2CCN(C(=O)COc3ccc(Cl)cc3)CC2)nc2ccccc2c1=O .
Out: 0.592

In: Name the recorded relative cell viability for Fc1ccc(-c2c3cccc(C(F)(F)F)c3nn2Cc2ccc(F)cc2Cl)cc1 + CCOc1ccccc1-n1c(C(C)N2CCN(C(=O)COc3ccc(Cl)cc3)CC2)nc2ccccc2c1=O .
Out: 0.509

In: Name the recorded relative cell viability for CC(C)CCC[C@@H](C)[C@H]1CC[C@H]2[C@@H]3CC=C4C[C@@H](O)CC[C@]4(C)[C@H]3CC[C@]12C [Cholesterol] + CCOc1ccccc1-n1c(C(C)N2CCN(C(=O)COc3ccc(Cl)cc3)CC2)nc2ccccc2c1=O .
Out: 0.953

In: Name the recorded relative cell viability for COc1cc(F)c(C(C)C)cc1-c1ccc(C(F)(F)F)cc1CN1C(=O)O[C@H](c2cc(C(F)(F)F)cc(C(F)(F)F)c2)[C@@H]1C [Anacetrapib] + CCOc1ccccc1-n1c(C(C)N2CCN(C(=O)COc3ccc(Cl)cc3)CC2)nc2ccccc2c1=O .
Out: 0.639

In: Name the recorded relative cell viability for CCCc1cc(-c2nc(-c3ccc(C)cc3)cs2)ccn1 [Fatostatin] + CCOc1ccccc1-n1c(C(C)N2CCN(C(=O)COc3ccc(Cl)cc3)CC2)nc2ccccc2c1=O .
Out: 0.595

In: Name the recorded relative cell viability for O=C(/C=C/c1ccc(/C=C/C(=O)Nc2ccc(C3=NCCN3)cc2)cc1)Nc1ccc(C2=NCCN2)cc1 + CCOc1ccccc1-n1c(C(C)N2CCN(C(=O)COc3ccc(Cl)cc3)CC2)nc2ccccc2c1=O .
Out: 0.346

In: Name the recorded relative cell viability for CC(=O)N1CCN(c2ccc(OCC3COC(Cn4ccnc4)(c4ccc(Cl)cc4Cl)O3)cc2)CC1 (stereo not drawn) [Ketoconazole] + CCOc1ccccc1-n1c(C(C)N2CCN(C(=O)COc3ccc(Cl)cc3)CC2)nc2ccccc2c1=O .
Out: 0.602

In: Name the recorded relative cell viability for CCOP(=O)(OCC)C(=Cc1cc(C(C)(C)C)c(O)c(C(C)(C)C)c1)P(=O)(OCC)OCC + CCOc1ccccc1-n1c(C(C)N2CCN(C(=O)COc3ccc(Cl)cc3)CC2)nc2ccccc2c1=O .
Out: 0.648

In: Name the recorded relative cell viability for N=C(N)NCCC(=O)O [3-Guanidinopropionic Acid] + CCOc1ccccc1-n1c(C(C)N2CCN(C(=O)COc3ccc(Cl)cc3)CC2)nc2ccccc2c1=O .
Out: 0.852

In: Name the recorded relative cell viability for CC[C@H](C)C(=O)O[C@H]1C[C@H](O)C=C2C=C[C@H](C)[C@H](CC[C@@H](O)C[C@@H](O)CC(=O)O)[C@H]21 [Pravastatin sodium] + CCOc1ccccc1-n1c(C(C)N2CCN(C(=O)COc3ccc(Cl)cc3)CC2)nc2ccccc2c1=O .
Out: 1.05
